Target under test: Hck (UniProt P08631)
Sequence (P08631 whole entry, looked up): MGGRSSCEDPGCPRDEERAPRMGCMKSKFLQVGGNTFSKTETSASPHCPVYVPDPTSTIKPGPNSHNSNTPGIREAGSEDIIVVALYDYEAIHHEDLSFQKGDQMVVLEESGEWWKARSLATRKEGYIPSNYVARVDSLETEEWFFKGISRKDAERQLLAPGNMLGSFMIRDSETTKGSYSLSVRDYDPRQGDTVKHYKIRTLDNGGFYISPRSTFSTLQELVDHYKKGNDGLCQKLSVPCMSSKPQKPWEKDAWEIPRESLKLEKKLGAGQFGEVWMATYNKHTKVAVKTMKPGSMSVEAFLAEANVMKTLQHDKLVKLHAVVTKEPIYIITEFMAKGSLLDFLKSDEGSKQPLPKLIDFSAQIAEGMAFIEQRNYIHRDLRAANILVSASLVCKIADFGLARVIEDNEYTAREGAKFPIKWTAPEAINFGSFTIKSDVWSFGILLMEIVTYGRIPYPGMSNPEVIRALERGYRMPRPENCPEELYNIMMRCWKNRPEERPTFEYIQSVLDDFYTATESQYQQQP
Test protocol: phosphorylation enrichment, bacterial display (enrichment ratio); higher = better substrate or ligand; peptides without Tyr show the background;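 also: 11-residue human phosphosite peptides and single-mutation variants displayed on the E. coli surface, counted by deep sequencing, each peptide's frequency after selection divided by its frequency in the unselected input library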;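 also: frequency after pTyr selection over input frequency; kinase dosed for 20-30% of maximal phosphorylation in three min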
Kindly supply the reported phosphorylation enrichment values for the records listed here.
Give your answer as a number; write no unit.

Recorded phosphorylation enrichment for LGSNTYPFLLM [SAG_Y120_T125M] , please?
0.492

// repeat for QGRQTYLPQPA [DDR2_Y813] and report
0.713

// repeat for GASWRYGSGVS [NEU1_Y242] and report
0.505

// repeat for PKSLFYLLLKL [TRPC6_Y775] and report
0.716

---

System: c-Abl (mouse)
Test protocol: phosphorylation enrichment, bacterial display (enrichment ratio); higher = better substrate or ligand; peptides without Tyr show the background
Measurement name: phosphorylation enrichment
Give your answer as a number; write no unit.

Recorded phosphorylation enrichment for EGNERYEGYCV [GRIA3_Y451] , please?
0.761

// repeat for ADQLDYIKALN [HPRT1_Y81_L78Q] and report
0.708

// repeat for MKKMHYVDPDH [ST3GAL5_Y99] and report
0.41

// repeat for NIFSFYLSRDP [CTSD_Y232] and report
0.619

// repeat for HSDYQYSQRSQ [PKP2_Y168] and report
0.749

// repeat for PTTKTYFPRFD [HBA1_Y43_H46R] and report
0.609

// repeat for AEQDWYHGAIP [FER_Y461] and report
0.646

// repeat for GMRHGHGVRQS [JPH2_Y141_Y141H] and report
1.28

// repeat for SIKHKYVTALF [KCNH2_Y611_D609H_YF] and report
0.524

// repeat for ISSLCYELLEE [TRPC6_Y896_R895C] and report
1.13

// repeat for MKKKTYAMGGG [GAN_Y424_I423T] and report
0.761

// repeat for LQPNNYQFCGG [CSF1R_Y969] and report
2.74

// repeat for EPDSLYGCGGG [ATM_Y2019] and report
1.04

// repeat for IGGHAYGDQFR [IDH1_Y135_R132G_YF] and report
0.418

// repeat for CTTIHYSYMCN [TP53_Y234_N235S] and report
0.627

// repeat for FQKNVYSEELR [LMNA_Y211_I210V] and report
0.535

// repeat for SGPRRYTMAAL [TTR_Y125_I127M] and report
0.555

// repeat for LVTCSYLLGNS [LMNA_Y646_R644C] and report
1.95

// repeat for DVSKEYGHLLP [HRC_Y99] and report
0.747

// repeat for ENEGTYVCIAT [ADAMTSL3_Y1365] and report
0.852

// repeat for RELGEYPLAEY [ALDH1A3_Y492_A493P] and report
1.17

// repeat for SEEVNYATLTF [CLEC12B_Y7_T6N] and report
1.38

// repeat for RDMNAYIRPSP [MMAA_Y207] and report
1.32

// repeat for RNGNRYFKGIV [DCX_Y64_D62N] and report
0.799

// repeat for KPLMPCMRFSR [SMARCE1_Y73_Y73C_YF] and report
0.88

// repeat for PHMQTYEVDLN [SDHB_Y61] and report
0.649

// repeat for EEEPVYEAEPE [HCLS1_Y360] and report
1.14

// repeat for FSGKAYADEER [CRIM1_Y826] and report
0.786

// repeat for EIKLAYRRRPP [GRIN2B_Y1109_E1106K] and report
0.756

// repeat for GVIRHSVVCST [BTK_Y334_Y334S] and report
0.607

// repeat for PSNTEYPGPHS [TP63_Y171_D170E] and report
0.696

// repeat for LFSINYLHFGD [KDM4C_Y201_E206D_YF] and report
0.968

// repeat for EYKKKYSDADI [CKAP5_Y1860] and report
0.637

// repeat for RNDRVYQPLRD [CD3D_Y149_Q147R] and report
0.689

// repeat for DDLEVYLKHPL [SACS_Y3477_L3481P] and report
0.842

// repeat for KPMDTYYDSTR [DYNC2H1_Y2230] and report
0.678

// repeat for PATYTYDEYKK [COL8A2_Y648] and report
1.38

// repeat for ETAENYLGFTA [HSPA9_Y181_H184Y_YF] and report
0.879

// repeat for GRDQPYSGAGD [TYRO3_Y828] and report
0.359

// repeat for HFECKYVINAI [MAOA_Y268_YF] and report
1.23

// repeat for WAMLAYNRSKL [WWOX_Y293] and report
0.541

// repeat for SFNNKYGMVAQ [APOB_Y276_K273N_YF] and report
0.462

// repeat for CENCHYPILPL [LCK_Y25_V28L] and report
0.607

// repeat for VDLSKCITTIA [FAS_Y232_Y232C] and report
0.681

// repeat for FADIAYNFHHG [PAH_Y166_R169H_YF] and report
0.354

// repeat for IQKKYYRAILE [CHD7_Y1218] and report
0.468

// repeat for IVVVPYEPPEV [TP53_Y220_S215I] and report
0.733

// repeat for PSFSEYASVQV [SIRPA_Y496] and report
4.02

---

Test system: AncSZ
Test protocol: phosphorylation enrichment, bacterial display (enrichment ratio); higher = better substrate or ligand; peptides without Tyr show the background
Label rule, in plain words: phosphorylation enrichment of 1 and up is Met, under 1 is Not met.

Is phosphorylation enrichment at least 1? Consider WCKPPYFSCAV [MMS22L_Y28]
Met

// repeat for MSLRSYGSREG [APC_Y96] and report
Not met

// repeat for EKLIQYCQSKS [AKR1B1_Y199_G204S] and report
Not met

// repeat for IDDNEYAFLKA [HNF4A_Y286_YF] and report
Met

// repeat for FFRDGCMPRQF [GSS_Y270_Y270C_YF] and report
Not met

// repeat for SNSAAYSGSVA [PDLIM5_Y382_T381A] and report
Not met

// repeat for GFRPVYSEDEQ [CHST6_Y362_YF] and report
Met

---

Target under test: EPHB1 (UniProt P54762)
Sequence (P54762 whole entry, looked up): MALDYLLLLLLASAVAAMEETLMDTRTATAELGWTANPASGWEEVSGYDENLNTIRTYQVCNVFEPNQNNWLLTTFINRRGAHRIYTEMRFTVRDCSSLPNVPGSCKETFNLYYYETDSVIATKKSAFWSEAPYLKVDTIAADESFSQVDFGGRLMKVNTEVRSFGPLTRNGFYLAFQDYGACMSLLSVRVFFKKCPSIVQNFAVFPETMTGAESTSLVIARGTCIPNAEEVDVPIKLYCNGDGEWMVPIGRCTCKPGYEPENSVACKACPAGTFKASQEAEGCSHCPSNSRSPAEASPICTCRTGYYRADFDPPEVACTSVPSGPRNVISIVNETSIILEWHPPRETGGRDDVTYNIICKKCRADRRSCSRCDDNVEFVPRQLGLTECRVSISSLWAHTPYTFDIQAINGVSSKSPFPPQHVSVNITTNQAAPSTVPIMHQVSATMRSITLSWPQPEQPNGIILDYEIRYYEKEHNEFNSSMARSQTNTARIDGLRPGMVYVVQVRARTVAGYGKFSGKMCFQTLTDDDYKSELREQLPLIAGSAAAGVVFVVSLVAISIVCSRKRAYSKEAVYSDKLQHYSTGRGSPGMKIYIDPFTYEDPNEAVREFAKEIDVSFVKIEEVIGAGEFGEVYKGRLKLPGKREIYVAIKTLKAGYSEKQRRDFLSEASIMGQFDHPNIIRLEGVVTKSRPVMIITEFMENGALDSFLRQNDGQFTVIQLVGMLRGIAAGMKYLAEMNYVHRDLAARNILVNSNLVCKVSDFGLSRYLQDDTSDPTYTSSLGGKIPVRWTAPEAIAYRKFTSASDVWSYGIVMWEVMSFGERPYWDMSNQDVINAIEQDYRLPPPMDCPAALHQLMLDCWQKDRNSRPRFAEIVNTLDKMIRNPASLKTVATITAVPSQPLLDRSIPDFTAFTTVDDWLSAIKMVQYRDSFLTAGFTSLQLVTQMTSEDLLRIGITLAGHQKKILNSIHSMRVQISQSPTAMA
Test protocol: phosphorylation enrichment, bacterial display (enrichment ratio); higher = better substrate or ligand; peptides without Tyr show the background
Measurement name: phosphorylation enrichment

Recorded phosphorylation enrichment for SLEKGYELPDG [ACTC1_Y242_S241G] , please?
0.475

// repeat for ECKASCPGKIT [PRSS3_Y232_Y232C] and report
0.336

// repeat for ILLAGYLVMVI [SLC28A3_Y113] and report
0.681

// repeat for YRGYSYDDIPD [TMEM230_Y112] and report
0.483

// repeat for FCRIMYDIFPF [INTS13_Y67_YF] and report
2.66

// repeat for AACQHYGVRTC [NR4A2_Y275] and report
0.381

// repeat for WFISFYPQVIM [CTNS_Y143_S139F] and report
0.541

// repeat for GDNNIYVTKII [DLG1_Y349_S347N] and report
0.525

// repeat for EKQVAYCPSGK [ROS1_Y2323] and report
0.413

// repeat for WRPFGYPCRRR [BCS1L_Y181_R183C] and report
0.422

// repeat for NLNGKYNKPRA [ANGPTL3_Y417] and report
0.294

// repeat for SISYDYCRVPM [BST2_Y8_T4I] and report
11

// repeat for NVADHYRVFKP [ATP6V0D2_Y271_G272R_YF] and report
0.404

// repeat for WGTPEYDSVVA [MAP1A_Y1883_A1881P] and report
0.495

// repeat for CERFSYFGMKA [SLC15A2_Y60_YF] and report
0.571

// repeat for QTENKYVSVSG [EIF2AK3_Y565_D566V] and report
0.808

// repeat for QDTSRYTVCNL [BIRC3_Y245_S248C] and report
0.528

// repeat for RFLRGYRQFAF [HLA-A_Y137_D140Y_YF] and report
0.67

// repeat for FGLPRYRWLTH [TSPAN12_Y143_YF] and report
0.526

// repeat for AFSTVYKGLWI [EGFR_Y727_G724S] and report
0.578

// repeat for LSDGPYSNSYE [EPOR_Y485_P488S] and report
0.944

// repeat for SLIDGYYRLTE [JAK2_Y372_A377E] and report
0.521

// repeat for SWKRRYFLLRA [APBB1IP_Y331] and report
0.595

// repeat for AKNKDYMSFIR [GNE_Y197_I200F] and report
0.812

// repeat for VQSASYLNDCL [MCM3AP_Y864_A867D] and report
0.536

// repeat for SGGMDYGMVGG [TNRC6B_Y1382] and report
0.471

// repeat for EDKFMYFEFPQ [PTEN_Y240] and report
0.826
